# Lookup of reported pKi keyed by entry
target: Sigma non-opioid intracellular receptor 1 (Cavia porcellus, UniProt Q60492); assay: Displacement of [3H]-(+)-Pentazocine from sigma 1 receptor in guinea pig brain cortex membranes after 120 mins by scintillation counting analysis
Sequence (Q60492 whole entry): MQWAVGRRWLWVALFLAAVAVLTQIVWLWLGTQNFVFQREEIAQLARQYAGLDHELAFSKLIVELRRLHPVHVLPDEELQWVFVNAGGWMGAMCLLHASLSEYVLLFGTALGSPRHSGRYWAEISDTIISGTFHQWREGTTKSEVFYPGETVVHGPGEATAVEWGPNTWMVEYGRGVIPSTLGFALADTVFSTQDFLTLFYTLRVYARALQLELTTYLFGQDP
pKi: −log10 of the molar value.
READOUT_NAME: pKi

1. OC1CN(CCCCc2ccccc2)CCc2ccccc21 (centres undefined)
6.17
2. C[C@@H]1[C@H](O)c2ccccc2CCN1Cc1ccccc1 (relative stereo)
6.58
3. C[C@@H]1[C@H](O)c2ccccc2CCN1CCCCc1ccccc1 (relative stereo)
7.34
4. C[C@@H]1[C@H](O)c2ccccc2CCN1CCCCCc1ccccc1 (relative stereo)
8.00

* * *

target: Sigma intracellular receptor 2 (Rattus norvegicus, UniProt Q5U3Y7); experiment: Displacement of [3H]-DTG from sigma 2 receptor in rat liver membranes after 120 mins by scintillation counting analysis
Sequence (Q5U3Y7 whole entry): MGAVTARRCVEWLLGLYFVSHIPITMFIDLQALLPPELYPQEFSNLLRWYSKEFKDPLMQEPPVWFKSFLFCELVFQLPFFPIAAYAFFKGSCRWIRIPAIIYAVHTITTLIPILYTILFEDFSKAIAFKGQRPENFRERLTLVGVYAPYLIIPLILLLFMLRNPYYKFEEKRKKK
// NB: equality with 100 nM counts as F; only Ki strictly below is T

1. C[C@@H]1[C@H](O)c2ccccc2CCN1CCCCCc1ccccc1 (relative stereo)
T
2. OC1CN(CCCCc2ccccc2)CCc2ccccc21 (stereo unspecified)
T
3. C[C@@H]1[C@H](O)c2ccccc2CCN1Cc1ccccc1 (relative stereo)
F
4. C[C@@H]1[C@H](O)c2ccccc2CCN1CCCCc1ccccc1 (relative stereo)
F
5. C[C@@H]1[C@H](O)c2ccc(O)cc2CCN1CCCCc1ccccc1
F
6. Oc1ccc2c(c1)CCN(CCCCc1ccccc1)CC2O (stereo unspecified)
F
